test: MRT in rat at 0.5 mg/kg, iv; format: ADME, organism-based; settings: in vivo
assay.metric: MRT (h)

[[record]]
item_smiles = "C[C@H]1NC(=O)[C@]2(N)CC(F)(F)[C@@H](C)[C@H](/C=C/c3ccc(-c4ccccc4C#N)cn3)[C@H]12"
assay_metric = "MRT"
experimental_value = 2.7


----------
target: Voltage-gated inwardly rectifying potassium channel KCNH2 (Homo sapiens); assay: Inhibition of [35S]MK-499 binding to hERG expressed in HEK293 cells; assay type: toxicity, cell-based
Sequence (Q12809 whole entry): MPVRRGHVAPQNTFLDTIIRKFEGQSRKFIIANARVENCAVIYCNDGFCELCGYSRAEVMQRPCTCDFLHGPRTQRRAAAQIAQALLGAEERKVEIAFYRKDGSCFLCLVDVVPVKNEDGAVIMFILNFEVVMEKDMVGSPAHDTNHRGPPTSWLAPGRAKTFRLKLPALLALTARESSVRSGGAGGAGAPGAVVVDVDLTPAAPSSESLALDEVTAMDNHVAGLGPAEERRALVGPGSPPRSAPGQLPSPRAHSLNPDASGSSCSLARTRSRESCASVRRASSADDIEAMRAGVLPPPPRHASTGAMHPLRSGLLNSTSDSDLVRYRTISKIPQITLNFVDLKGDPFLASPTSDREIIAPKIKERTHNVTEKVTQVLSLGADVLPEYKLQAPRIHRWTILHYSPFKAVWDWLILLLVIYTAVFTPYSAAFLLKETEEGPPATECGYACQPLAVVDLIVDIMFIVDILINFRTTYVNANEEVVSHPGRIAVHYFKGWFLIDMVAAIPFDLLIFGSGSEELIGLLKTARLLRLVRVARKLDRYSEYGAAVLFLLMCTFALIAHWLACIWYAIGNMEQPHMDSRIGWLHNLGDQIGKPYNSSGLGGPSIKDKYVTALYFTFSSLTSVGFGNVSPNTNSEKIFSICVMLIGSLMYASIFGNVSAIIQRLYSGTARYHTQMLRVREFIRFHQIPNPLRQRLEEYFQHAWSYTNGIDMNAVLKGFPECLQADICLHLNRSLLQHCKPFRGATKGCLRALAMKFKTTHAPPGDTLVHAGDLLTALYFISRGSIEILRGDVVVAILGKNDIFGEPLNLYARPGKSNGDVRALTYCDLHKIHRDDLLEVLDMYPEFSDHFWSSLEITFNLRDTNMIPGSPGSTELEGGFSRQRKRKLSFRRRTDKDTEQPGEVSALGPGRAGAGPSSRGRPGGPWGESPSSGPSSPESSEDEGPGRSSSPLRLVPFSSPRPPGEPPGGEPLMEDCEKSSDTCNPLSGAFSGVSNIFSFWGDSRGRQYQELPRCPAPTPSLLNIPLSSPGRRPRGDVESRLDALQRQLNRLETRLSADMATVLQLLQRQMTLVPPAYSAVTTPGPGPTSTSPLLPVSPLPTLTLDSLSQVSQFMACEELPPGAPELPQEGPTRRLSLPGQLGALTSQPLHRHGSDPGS
pIC50: −log10 of the molar value.
assay.metric: pIC50

[[record]]
item_smiles = "CNC(=O)N1C[C@H]2[C@H](C)[C@@H](C)[C@H](/C=C/c3ccc(-c4ccccc4C#N)cn3)[C@@H]3[C@@H](C)OC(=O)[C@@]32C1"
measurement_target = "Voltage-gated inwardly rectifying potassium channel KCNH2 (Homo sapiens)"
assay_metric = "pIC50"
experimental_value = 4.30

[[record]]
item_smiles = "CCOC(=O)N1C[C@H]2[C@H](C)[C@@H](C)[C@H](/C=C/c3ccc(-c4ccccc4C#N)cn3)[C@@H]3[C@@H](C)OC(=O)[C@@]32C1"
measurement_target = "Voltage-gated inwardly rectifying potassium channel KCNH2 (Homo sapiens)"
assay_metric = "pIC50"
experimental_value = 5.80

[[record]]
item_smiles = "C[C@@H]1[C@@H](C)[C@@H]2CNC[C@@]23C(=O)O[C@H](C)[C@H]3[C@H]1/C=C/c1ccc(-c2ccccc2C#N)cn1"
measurement_target = "Voltage-gated inwardly rectifying potassium channel KCNH2 (Homo sapiens)"
assay_metric = "pIC50"
experimental_value = 5.89

